System: KRAS-G12C mutant (Homo sapiens, UniProt P01116, G12C)
Sequence (P01116 1-188 isoform P01116-2 G12C): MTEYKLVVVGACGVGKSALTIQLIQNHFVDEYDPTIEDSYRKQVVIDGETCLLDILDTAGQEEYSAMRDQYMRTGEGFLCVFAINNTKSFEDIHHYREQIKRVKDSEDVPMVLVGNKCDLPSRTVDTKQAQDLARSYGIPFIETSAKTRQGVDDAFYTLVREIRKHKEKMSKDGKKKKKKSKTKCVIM
Test Details: TR-FRET assay of SOS1-assisted KRAS GDP/GTP exchange
Please respond with reported pIC50 for every item in the list.
Bear in mind: pIC50 is minus log10 of a mol/L concentration; give just that figure.

What does the data say about its pIC50? Entry: `C=CC(=O)N1CCN(c2nc(OC[C@@H]3CCCN3C)nc3c2CO[C@H](c2cccc4ccccc24)C3)C[C@@H]1CC#N`
7.31

Look up pIC50: `C=C(F)C(=O)N1CCN(c2nc(OCC34CCCN3CCC4)nc3c2[C@H](C)O[C@H](c2cccc4cccc(C)c24)C3)C[C@@H]1CC#N`
7.52

Dear colleague, I am looking for the recorded pIC50 of the following compound: C=C(F)C(=O)N1CCN(c2nc(OC[C@@]34CCCN3C[C@H](F)C4)nc3c2CO[C@@H](c2cccc4cccc(Cl)c24)C3)C[C@@H]1CC#N (single isomer, unassigned)
5.16

Fill in: pIC50 of C=C(F)C(=O)N1CCN(c2nc(OC[C@@H]3CCCN3C)nc3c2COC(c2cccc4ccccc24)C3)C[C@@H]1CC#N (stereo partly drawn) is ___
6.16

Any idea what pIC50 was measured for C=CC(=O)N1CCN(c2nc(OC[C@@H]3CCCN3C)nc3c2COC(c2cccc4ccccc24)C3)C[C@@H]1CC#N (stereo partly drawn) ?
7.11

Recorded pIC50 for C=C(F)C(=O)N1CCN(c2nc(OCC34CCCN3CCC4)nc3c2CO[C@@H](c2cccc4cccc(Cl)c24)C3)C[C@@H]1CC#N (single isomer, unassigned) , please?
5.63

Give its pIC50 value. Item: `C=CC(=O)N1CCN(c2nc(OC[C@@H]3CCCN3C)nc3c2CO[C@H](c2cccc4cccc(Cl)c24)C3)C[C@@H]1CC#N`
7.72

Query: pIC50; subject: C=C(F)C(=O)N1CCN(c2nc(OCC34CCCN3CCC4)nc3c2COC(c2cccc4cccc(Cl)c24)C3)C[C@@H]1CC#N (stereo partly drawn)
7.35

Fill in: pIC50 of `C=C(F)C(=O)N1CCN(c2nc(OC[C@@H]3CCCN3C)nc3c2CO[C@H](c2cccc4cccc(Cl)c24)C3)C[C@@H]1CC#N` is ___
7.11

# lookup: pIC50 of `C=CC(=O)N1CCN(c2nc(OC[C@@H]3C[C@H](F)CN3C)nc3c2CO[C@H](c2cccc4ccccc24)C3)C[C@@H]1CC#N`
9.00

# lookup: pIC50 of C=C(F)C(=O)N1CCN(c2nc(OCC34CCCN3CCC4)nc3c2CO[C@H](c2cccc4cccc(Cl)c24)C3)C[C@@H]1CC#N (single isomer, unassigned)
7.66

Would you mind telling me what pIC50 value was observed for `C=C(F)C(=O)N1CCN(c2nc(OCC34CCCN3CCC4)nc3c2[C@@H](C)O[C@@H](c2cccc4cccc(C)c24)C3)C[C@@H]1CC#N` ?
4.94

Suppose we examine the compound C=CC(=O)N1CCN(c2nc(OC[C@@H]3C[C@@H](F)CN3C)nc3c2COC(c2cccc4ccccc24)C3)C[C@@H]1CC#N (stereo partly drawn) ; what pIC50 value has been reported?
6.62

Data request, read-out pIC50, for C=CC(=O)N1CCN(c2nc(OC[C@@H]3CCCN3C)nc3c2COC(c2cccc4cccc(Cl)c24)C3)C[C@@H]1CC#N (stereo partly drawn)
7.54

Consider the compound C=C(F)C(=O)N1CCN(c2nc(OCC34CCCN3CCC4)nc3c2C(C)OC(c2cccc4cccc(Cl)c24)C3)C[C@@H]1CC#N (stereo partly drawn) and give its measured pIC50.
7.22

Field request: pIC50 | item: `C=C(F)C(=O)N1CCN(c2nc(OC[C@@H]3CCCN3C)nc3c2CO[C@@H](c2cccc4cccc(Cl)c24)C3)C[C@@H]1CC#N`
4.09

What pIC50 value was documented for this compound, `C=C(F)C(=O)N1CCN(c2nc(OCC34CCCN3CCC4)nc3c2[C@@H](C)O[C@@H](c2cccc4c2CCCC4)C3)C[C@@H]1CC#N` ?
5.38

Quick check: pIC50 of C=C(F)C(=O)N1CCN(c2nc(OCC34CCCN3CCC4)nc3c2COC(c2cccc4c2CCCC4)C3)C[C@@H]1CC#N (stereo partly drawn) ?
7.44

What value of pIC50 has been recorded for this entry: `C=C(F)C(=O)N1CCN(c2nc(OCC34CCCN3CCC4)nc3c2CO[C@H](c2cccc4c2CCCC4)C3)C[C@@H]1CC#N`
7.70

Entry C=C(F)C(=O)N1CCN(c2nc(OCC3(CN4CCCC4)CC3)nc3c2CO[C@H](c2cccc4cccc(Cl)c24)C3)C[C@@H]1CC#N (single isomer, unassigned) has what pIC50?
6.95

Quick check: pIC50 of `C=C(F)C(=O)N1CCN(c2nc(OC[C@@]34CCCN3C[C@H](F)C4)nc3c2CO[C@H](c2cccc4cccc(Cl)c24)C3)C[C@@H]1CC#N` ?
7.70

For `C=C(F)C(=O)N1CCN(c2nc(OCC34CCCN3CCC4)nc3c2CO[C@@H](c2cccc4c2CCCC4)C3)C[C@@H]1CC#N` , what is its reported pIC50?
5.60

Sample C=C(F)C(=O)N1CCN(c2nc(OCC34CCCN3CCC4)nc3c2CO[C@@H](c2cccc4cccc(C)c24)C3)C[C@@H]1CC#N (single isomer, unassigned) — what was its pIC50?
5.31

Give its pIC50 value. Item: C=C(F)C(=O)N1CCN(c2nc(OCC3(CN4CCCC4)CC3)nc3c2CO[C@@H](c2cccc4cccc(Cl)c24)C3)C[C@@H]1CC#N (single isomer, unassigned)
4.94
